# assayed_system: purified bovine lung sGC (Bos taurus, UniProt P16068+P19687)
# Construct: screened at 100 μM against purified bovine lung sGC; purchased Enzo lifesciences ALX-202-039-C005; host or cells: bovine lung
# Sequence (P19687 whole entry): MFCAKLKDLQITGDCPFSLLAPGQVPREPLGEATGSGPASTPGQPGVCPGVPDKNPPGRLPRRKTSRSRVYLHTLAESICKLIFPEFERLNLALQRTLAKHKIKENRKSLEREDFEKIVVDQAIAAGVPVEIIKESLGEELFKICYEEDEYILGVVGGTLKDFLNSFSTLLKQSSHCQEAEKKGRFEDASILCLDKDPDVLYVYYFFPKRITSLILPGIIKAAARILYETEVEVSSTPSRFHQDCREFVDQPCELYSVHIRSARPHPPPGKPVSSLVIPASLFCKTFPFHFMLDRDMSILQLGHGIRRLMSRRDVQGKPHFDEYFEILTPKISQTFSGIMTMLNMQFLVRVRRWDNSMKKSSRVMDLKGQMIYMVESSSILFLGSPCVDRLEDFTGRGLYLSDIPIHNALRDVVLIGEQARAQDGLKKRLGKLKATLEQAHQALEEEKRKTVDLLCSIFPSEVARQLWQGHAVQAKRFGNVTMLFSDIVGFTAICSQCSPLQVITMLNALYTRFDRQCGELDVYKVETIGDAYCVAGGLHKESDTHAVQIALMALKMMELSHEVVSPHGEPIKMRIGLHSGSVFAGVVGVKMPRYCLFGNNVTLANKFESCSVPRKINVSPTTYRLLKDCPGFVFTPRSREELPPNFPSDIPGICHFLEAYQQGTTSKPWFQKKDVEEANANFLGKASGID
# Sequence (P16068 whole entry): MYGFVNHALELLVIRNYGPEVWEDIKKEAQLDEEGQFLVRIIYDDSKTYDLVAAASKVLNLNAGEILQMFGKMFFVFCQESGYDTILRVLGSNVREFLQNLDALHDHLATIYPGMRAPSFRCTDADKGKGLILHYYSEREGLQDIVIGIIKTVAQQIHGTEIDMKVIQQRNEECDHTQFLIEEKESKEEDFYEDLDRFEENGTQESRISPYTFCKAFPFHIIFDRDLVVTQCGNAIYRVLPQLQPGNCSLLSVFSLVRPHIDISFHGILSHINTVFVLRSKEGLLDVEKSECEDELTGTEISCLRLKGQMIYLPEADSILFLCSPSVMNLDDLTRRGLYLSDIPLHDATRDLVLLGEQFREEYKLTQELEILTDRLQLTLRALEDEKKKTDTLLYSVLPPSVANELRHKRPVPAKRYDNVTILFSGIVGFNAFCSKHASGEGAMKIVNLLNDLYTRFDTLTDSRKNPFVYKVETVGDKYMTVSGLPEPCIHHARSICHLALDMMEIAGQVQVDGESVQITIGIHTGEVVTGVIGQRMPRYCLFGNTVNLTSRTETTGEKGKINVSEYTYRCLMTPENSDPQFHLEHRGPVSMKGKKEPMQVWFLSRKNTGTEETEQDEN
# run_description: Soluble guanylate cyclase activity assay (cGMP radioimmunoassay)
# Assay type: biochemical
# run_parameters: NO 0.3 nM; GTP 200 μM; read-out: IC50, NO-stimulated cGMP production by isolated sGC
experimental_readout: IC50 (µM)

> print(dat)
                               smiles.entry  experimental.readout  reported
1  O=[N+]([O-])c1ccc2nc(Nc3ccc(O)cc3)c(Nc3ccc(O)cc3)nc2c1                  IC50        33
